I'd be grateful if you could share measured % Suppression vs. Vehicle for these entries.
# study.target: mouse TLR7 (Mus musculus)
# protocol.notes: Short-term in vivo (STIV) assay: oral dosing, R848 s.c., plasma IL-6
# Design: female BALB/c mice (Jackson Labs, Bar Harbor, Me.) were dosed by oral gavage; tissue Jackson Labs; host or cells: living female BALB/c mice; plasma IL-6 after s.c. R848
# condition.info: 6 h; 33 mg/kg
One number for each entry, in %.

compound	value.type	recorded.measurement
CC(C)C(=O)NC1CN(C[C@H]2CN(c3ccc(C#N)c4ncccc34)C[C@@H](C)O2)C1 [ER-894206]	% Suppression vs. Vehicle	85
C[C@@H]1CN(c2ccc(C#N)c3ncccc23)C[C@H](CN2CC[C@H](O)C2)O1 [ER-886820]	% Suppression vs. Vehicle	68
C[C@@H]1CN(c2ccc(C#N)c3ncccc23)C[C@H](CN2CCC(N3CCCCC3)CC2)O1 [ER-887927]	% Suppression vs. Vehicle	100
C[C@@H]1CN(c2ccc(C#N)c3ncccc23)C[C@H](CN2CCN(C)CC2)O1 [ER-887723]	% Suppression vs. Vehicle	100
CCNC(=O)C1CN(c2ccc(C#N)c3ncccc23)CC(C)O1 (centres unmarked) [ER-894550]	% Suppression vs. Vehicle	98
C[C@@H]1CN(c2ccc(C#N)c3ncccc23)C[C@H](CN2CCC(N3CCCC3)CC2)O1 [ER-888480]	% Suppression vs. Vehicle	100

Each compound below has a recorded value; state its % Suppression vs. Vehicle.
1. C[C@@H]1CN(c2ccc(C#N)c3ncccc23)C[C@H](CN2CC[C@H](N3CCCC3)C2)O1 [ER-893881]
2. COc1cccnc1NC[C@H]1CN(c2ccc(C#N)c3ncccc23)C[C@@H](C)O1 [ER-886948]
3. CC[C@H]1CN(C[C@H]2CN(c3ccc(C#N)c4ncccc34)C[C@@H](C)O2)CCN1 [ER-890963]

output:
1: 82; 2: 35; 3: 98

Provide the reported % Suppression vs. Vehicle of each entry below, same order.
1. C[C@@H]1CN(c2ccc(C#N)c3ncccc23)C[C@H](CN2CCC(O)CC2)O1 [ER-886953]
2. CC1CN(c2ccc(C#N)c3ncccc23)CC(C(=O)NCC(C)(C)N(C)C)O1 (centres unmarked) [ER-898566]

output:
1. 99
2. 100

---

# study.target: mouse TLR7 (Mus musculus, UniProt P58681)
# Sequence (P58681 27-1050): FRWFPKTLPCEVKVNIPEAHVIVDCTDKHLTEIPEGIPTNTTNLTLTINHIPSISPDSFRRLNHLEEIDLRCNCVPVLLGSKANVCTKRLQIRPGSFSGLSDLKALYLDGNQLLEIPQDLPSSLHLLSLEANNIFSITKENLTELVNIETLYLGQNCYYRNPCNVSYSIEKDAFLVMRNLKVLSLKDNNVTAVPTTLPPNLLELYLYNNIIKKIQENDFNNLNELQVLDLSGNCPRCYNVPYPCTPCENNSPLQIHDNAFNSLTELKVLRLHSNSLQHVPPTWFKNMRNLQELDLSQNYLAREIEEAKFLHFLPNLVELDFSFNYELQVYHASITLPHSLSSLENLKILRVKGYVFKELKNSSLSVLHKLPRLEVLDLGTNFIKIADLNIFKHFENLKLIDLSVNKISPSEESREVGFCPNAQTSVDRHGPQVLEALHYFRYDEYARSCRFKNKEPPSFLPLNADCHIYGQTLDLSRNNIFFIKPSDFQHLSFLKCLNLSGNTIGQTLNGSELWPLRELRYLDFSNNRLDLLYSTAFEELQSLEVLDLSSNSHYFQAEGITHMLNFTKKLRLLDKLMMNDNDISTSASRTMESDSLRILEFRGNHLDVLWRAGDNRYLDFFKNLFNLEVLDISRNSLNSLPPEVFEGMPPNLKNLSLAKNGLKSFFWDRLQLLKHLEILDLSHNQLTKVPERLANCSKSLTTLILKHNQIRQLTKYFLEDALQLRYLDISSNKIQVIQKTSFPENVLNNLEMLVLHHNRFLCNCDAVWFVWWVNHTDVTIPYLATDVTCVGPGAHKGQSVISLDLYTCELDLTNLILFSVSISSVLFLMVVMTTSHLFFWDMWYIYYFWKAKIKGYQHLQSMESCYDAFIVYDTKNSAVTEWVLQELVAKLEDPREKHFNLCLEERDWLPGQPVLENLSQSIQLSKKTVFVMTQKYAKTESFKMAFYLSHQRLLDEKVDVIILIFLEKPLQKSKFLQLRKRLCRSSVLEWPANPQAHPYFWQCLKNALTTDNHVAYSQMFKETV
# protocol.notes: Short-term in vivo (STIV) assay: oral dosing, R848 s.c., plasma IL-6
# Design: female BALB/c mice (Jackson Labs, Bar Harbor, Me.) were dosed by oral gavage; tissue Jackson Labs; host or cells: living female BALB/c mice; plasma IL-6 after s.c. R848
# condition.info: 3 h; 100 mg/kg
value.type: % Suppression vs. Vehicle (%)
Numbers only, in %.

compound	unit.symbol	recorded.measurement
C[C@@H]1CN(c2ccc(C#N)c3ncccc23)C[C@H](CN2CCC(O)CC2)O1 [ER-886953]	%	99

Hey, can you go through the list below and give me % Suppression vs. Vehicle for every item?
1. C[C@@H]1CN(c2ccc(C#N)c3ncccc23)C[C@H](CN2CCC(N3CCN(C)CC3)CC2)O1 [ER-890223]
2. CC1CN(c2ccc(C#N)c3ncccc23)CC(CN2CCNC(C)C2C)O1 (stereo not drawn) [ER-887137]
3. C[C@@H]1CN(c2ccc(C#N)c3ncccc23)C[C@H](CN2CC[C@H](O)C2)O1 [ER-886820]
4. CC1CN(c2ccc(C#N)c3ncccc23)CC(CN2CCC(NC(=O)c3ccccc3)CC2)O1 (stereo not drawn) [ER-888321]
5. CC1CN(c2ccc(C#N)c3ncccc23)CC(CN2CCN(C)CC2C)O1 (stereo not drawn) [ER-889556]
6. COc1cccnc1NC[C@H]1CN(c2ccc(C#N)c3ncccc23)C[C@@H](C)O1 [ER-886948]
7. CC1CN(c2ccc(C#N)c3ncccc23)CC(CN2CCC(N3CCOCC3)CC2)O1 (stereo not drawn) [ER-890093]

output:
1. 99
2. 100
3. 100
4. 100
5. 100
6. 89
7. 92

input: Using known records, supply % Suppression vs. Vehicle for C[C@@H]1CN(c2ccc(C#N)c3ncccc23)C[C@H](CNc2ccccn2)O1 [ER-886788]
output: 0

---

# study.target: human TLR8 (Homo sapiens, UniProt Q9NR97)
# Construct: host or cells: HEK-293, then stably transfected with pNiFty2(NF-kappaB)-luciferase reporter
# Sequence (Q9NR97 27-1041): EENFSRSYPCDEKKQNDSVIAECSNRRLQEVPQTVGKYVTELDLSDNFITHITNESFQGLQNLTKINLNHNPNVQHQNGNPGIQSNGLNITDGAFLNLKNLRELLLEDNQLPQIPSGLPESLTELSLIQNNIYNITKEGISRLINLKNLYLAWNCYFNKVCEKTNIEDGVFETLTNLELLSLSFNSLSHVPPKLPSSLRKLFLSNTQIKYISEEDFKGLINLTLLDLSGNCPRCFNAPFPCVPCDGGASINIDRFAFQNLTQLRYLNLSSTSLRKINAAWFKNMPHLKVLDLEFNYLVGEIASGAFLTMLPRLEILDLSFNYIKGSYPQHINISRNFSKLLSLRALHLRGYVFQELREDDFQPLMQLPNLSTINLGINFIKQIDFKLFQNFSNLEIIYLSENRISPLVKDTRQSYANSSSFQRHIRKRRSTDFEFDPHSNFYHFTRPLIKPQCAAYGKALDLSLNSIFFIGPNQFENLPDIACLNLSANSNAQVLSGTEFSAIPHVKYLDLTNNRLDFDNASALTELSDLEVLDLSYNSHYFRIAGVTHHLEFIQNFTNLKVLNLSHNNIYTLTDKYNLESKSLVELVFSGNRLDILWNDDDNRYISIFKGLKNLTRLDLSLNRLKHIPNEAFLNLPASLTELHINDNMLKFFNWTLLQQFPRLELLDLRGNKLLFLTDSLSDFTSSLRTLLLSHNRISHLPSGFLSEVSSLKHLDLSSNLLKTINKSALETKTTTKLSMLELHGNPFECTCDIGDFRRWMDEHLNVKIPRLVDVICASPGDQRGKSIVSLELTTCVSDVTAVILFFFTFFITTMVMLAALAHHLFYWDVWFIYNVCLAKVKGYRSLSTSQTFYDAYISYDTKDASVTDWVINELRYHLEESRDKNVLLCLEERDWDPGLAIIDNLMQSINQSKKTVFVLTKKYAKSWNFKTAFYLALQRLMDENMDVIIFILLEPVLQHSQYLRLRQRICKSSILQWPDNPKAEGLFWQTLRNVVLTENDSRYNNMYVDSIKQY
# protocol.notes: HEK-293 human TLR8 NF-kappaB luciferase reporter assay (CL097)
# Type: cell-based
# condition.info: HEK-293 assay format; read-out: HEK/hTLR8 IC50
# Method: Effects on mouse TLR7 were also compared. Cells were stimulated overnight with TLR7/8 agonist CL097 at pre-determined ED70-80: 3 ug/ml for HEK-hTLR7, 1.5 ug/ml for HEK-mTLR7 and 12 ug/ml for HEK-hTLR8, before reading luminescence intensity. Three tests were performed and IC50 value was determined using Graphpad Prism 6 nonlinear regression curve fit. […]
Give measured IC50 for each item. Keep answers brief.

Before answering, review these 3 worked examples.
compound	recorded.measurement
CC1CN(c2ccc(C#N)c3ncccc23)CC(C(O)C2CCCCC2)O1 (single isomer, unassigned) [ER-886532]	30 nM
C[C@@H]1CN(c2ccc(C#N)c3ncccc23)C[C@H](CNC(=O)C(C)(C)C)O1	80 nM
CC[C@@H]1CN(c2ccc(C#N)c3ncccc23)C[C@H](CO)O1	77 nM

State the recorded IC50 for every item in the following list.
1. CC1CCC(C)N1C[C@H]1CN(c2ccc(C#N)c3ncccc23)C[C@@H](C)O1 (stereo partly shown)
2. CC(=O)N1CCN(C[C@H]2CN(c3ccc(C#N)c4ncccc34)C[C@@H](C)O2)CC1
3. CC1CN(c2ccc(C#N)c3ncccc23)CC(CNC2CCCC2O)O1 (mixture of isomers)
4. C[C@@H]1CN(c2ccc(C#N)c3ncccc23)C[C@H](CN2CCCCC2CO)O1 (stereo partly shown)
5. CC1CN(c2ccc(C#N)c3ncccc23)CC(CN2CCC(F)CC2)O1 (stereo not shown)
6. C[C@@H]1CN(c2ccc(C#N)c3ncccc23)C[C@H](CN2CCC[C@@H](N)C2)O1
7. C[C@@H]1CN(c2ccc(C#N)c3ncccc23)C[C@H](COCC2CCCCC2)O1
8. C[C@@H]1CN(c2ccc(C#N)c3ncccc23)C[C@H](CNC2CCCC2)O1

output:
72 nM
77 nM
135 nM
83 nM
48 nM
11 nM
147 nM
105 nM

State the recorded IC50 for every item in the following list.
1. CC1CN(c2ccc(C#N)c3ncccc23)CC(CN2CCC(N(C)C)CC2)O1 (stereo not shown)
2. CC[C@@H]1CN(c2ccc(C#N)c3ncccc23)C[C@H](COCc2ccccc2)O1
3. C[C@@H]1CN(c2ccc(C#N)c3ncccc23)C[C@H](CN2CCC(N3CCCCC3)CC2)O1
4. C[C@@H]1CN(c2ccc(C#N)c3ncccc23)C[C@H](CN2CCC[C@@H](O)C2)O1
5. CCN(CC)C[C@H]1CN(c2ccc(C#N)c3ncccc23)C[C@@H](C)O1

output:
1 nM
66 nM
0.5 nM
78 nM
186 nM
